Reported TGI by item:
- System: PC-3 prostate
- method-summary: NCI tumour cell line growth inhibition, 48 h

The following compounds have reported results that may help.
- compound: "Cc1cc(C)c(NC(=O)c2sc3nc4c(cc3c2N)C(=O)CCC4)c(C)c1"
  result: "> 100 µM"
- compound: "O=C(/C=C/c1ccc2ccccc2c1)NCc1ccc(C(=O)NCCc2ccccc2)cc1"
  result: "> 100 µM"
- compound: "C=CCCC1(CC(Sc2ccccc2)P(=O)(c2ccccc2)c2ccccc2)OCCO1 (stereo not given)"
  result: "> 10 µM"

Exam item: Print PC-3 prostate TGI for `Nc1nc(Nc2cccnc2)sc1C(=O)c1ccccc1F` .
Marked response: > 100 µM

Exam item: State TGI on PC-3 prostate. Entry: O=C(NC(Cc1ccccc1)(Cc1ccc(O)cn1)C(=O)O)c1ccccc1 (stereo not given)
Marked response: > 100 µM

###

- Tested on: CAKI-1 renal
- method-summary: NCI tumour cell line growth inhibition, 48 h
test-readout: TGI

- compound: "CCCCCCCCCCCCCCCC(=O)OCC(C[As](=O)(O)O)OC(=O)CCCCCCCCCCCCCCC (stereo not drawn)"
  result: "> 100 µM"
- compound: "CCNCCNc1cc(-c2ccc(C(F)(F)F)cc2)c(C#N)c2nc3ccccc3n12"
  result: "2.31 µM"
- compound: "O=[N+]([O-])c1ccc(S(=O)(=O)n2c3ccc(Br)cc3c3nc4ccccc4nc32)cc1"
  result: "> 100 µM"
- compound: "Cc1ccc(NC(=O)c2cccc(C(C)(C)C#N)c2)cc1Nc1ccc2ncn(C)c(=O)c2c1"
  result: "> 100 µM"
- compound: "COc1cc2[nH]c3c(c2cc1OC)CCN[C@]31CC[C@]2(CC3c4c(cc(OC)c(O)c42)CCN3C)C[C@H]1OC (stereo partly drawn)"
  result: "> 100 µM"

Exam item: Give TGI for the following compound: `CCN(CC)CCSc1c2cc(OC)ccc2nc2ccc(OC)cc12`
Marked response: 22.9 µM

Exam item: Dear colleague, please send me the reported TGI for `CCO/C=N\C1=C(C#N)SC2=N/C(=C\c3ccc(OC)cc3)C(=O)N21` when you can.
Marked response: > 100 µM

Exam item: Let me know recorded TGI for Cn1cc(C2(C)CC(C)(C)c3c2n(C)c2ccccc32)c2ccccc21 (stereo not drawn) , thanks.
Marked response: > 100 µM

###

- Test system: CCRF-CEM leukemia
- method-summary: NCI tumour cell line growth inhibition, 48 h
test-readout: TGI (µM)
The reply should contain only the number, in µM.

- smiles-repr: "Cc1ccc(N=C/C=C(\\Nc2ccc(C)cc2)c2ccc(Cl)cc2)cc1"
  subject-of-test: "CCRF-CEM leukemia"
  quantitative-result: 33.5

Exam item: Please look at this molecule and report its TGI: `Cc1ccc2c3c1O[C@H]1c4[nH]c5ccccc5c4C[C@@]4(O)[C@@H](C2)N(CC2CC2)CC[C@]314`
Marked response: 24.6

###

- Tested on: RPMI-8226 leukemia
- method-summary: NCI tumour cell line growth inhibition, 48 h
// reported TGI for each item listed
# output: bare number, implied unit µM

- smiles-repr: "C=C1C(=O)O[C@H]2[C@H]1CC/C(COC(=O)NCCCCNC(=O)OC/C1=C/CC[C@@]3(C)O[C@H]3[C@H]3OC(=O)C(=C)[C@@H]3CC1)=C\\CC[C@@]1(C)O[C@@H]21"
  subject-of-test: "RPMI-8226 leukemia"
  quantitative-result: 3.08

// switching to the query compound
Exam item: Tell me TGI reported for `c1ccc(Sc2ccc(Cc3nc4cc5ccccc5cc4[nH]3)cc2)cc1`
Marked response: 49.7

###

- Test system: HCT-15 colon
- method-summary: NCI tumour cell line growth inhibition, 48 h
test-readout: TGI

- molecule: "Cn1c(O)c(C(=O)NC2CCCCC2)c(=O)n(C)c1=S"
  TGI: "25.9 µM"
- molecule: "O=C(Nc1cc(Cl)c(Cl)cc1Cl)C(=O)C1C(=O)NC(=S)NC1=O"
  TGI: "> 100 µM"
- molecule: "O=C1CC(c2cccc([N+](=O)[O-])c2)C2(C(=O)NC(=O)NC2=O)C(c2cccc([N+](=O)[O-])c2)C1 (stereo not given)"
  TGI: "> 100 µM"

Exam item: Please report the measured TGI for `COc1cc(OC)c(C(=O)/C=C/c2cccc(C(F)(F)F)c2)c(OC)c1`
Marked response: 2.68 µM

Exam item: Please report the measured TGI for `Cc1[nH]c(=O)nc2[nH][nH]c(=O)c12`
Marked response: > 100 µM

Exam item: Indicate the recorded TGI value for this molecule: `Clc1ccc(-c2cc3nc4ccccc4nc3o2)cc1`
Marked response: > 100 µM

###

- System: MDA-MB-231 breast
- method-summary: NCI tumour cell line growth inhibition, 48 h; in the data active means GI50 below about 0.43 µM; inactive means the rest
Give one outcome, nothing more. List: active, inactive

- smiles-repr: "S=c1ssc(N2CCOCC2)c1Cl"
  label-class: "inactive"
- smiles-repr: "COCC[C@H]1CCC/C=C/[C@@H]2C[C@H](O)C[C@H]2[C@H](O)/C=C/C(=O)O1"
  label-class: "active"
- smiles-repr: "Cc1cc(C(=O)Nc2ccc3cc(CN4CCOCC4)ccc3n2)c(C)n1-c1ccccc1"
  label-class: "inactive"
- smiles-repr: "Cc1cc2ncnn2cc1Nc1ncc2c(n1)n(C1CCOCC1)c(=O)n2C"
  label-class: "inactive"

Exam item: Record request — test call for `Cc1cc(C)c(NC(=O)c2sc3nc4c(cc3c2N)C(=O)CCC4)c(C)c1`
Marked response: inactive

Exam item: Fill in: this test's call for `COC(=O)Nc1nc2ccc(C3(c4ccc(F)cc4)OCCO3)cc2[nH]1` is ___
Marked response: inactive

Exam item: What was the test verdict on `COc1ccc(-c2nc3ccccn3c2/C=C/C(=O)c2cc(OC)c(OC)c(OC)c2)cc1OC` ?
Marked response: inactive

###

# GI50 values compiled below
- System: COLO 205 colon
- method-summary: NCI tumour cell line growth inhibition, 48 h

- smiles-repr: "S=c1ssc(N2CCOCC2)c1Cl"
  GI50: "> 100 µM"

Exam item: Using the record for `COc1c(C(=O)/C=C/c2ccccc2)c(O)cc2occc12` , state its measured GI50.
Marked response: 15.7 µM

Exam item: Please give measured GI50 of the following entry: `COc1ccc(/C=C/c2c(C(=O)/C=C/c3ccccc3)c(C)nc3ccccc23)cc1`
Marked response: 1.76 µM

###

- System: UO-31 renal
- method-summary: NCI tumour cell line growth inhibition, 48 h
test-readout: TGI

Exam item: Entry CC1S/C(=N\N=C2/C(=O)Nc3ccc(Br)cc32)N(C2CCCCC2)C1=O (configuration not stated) needs its TGI filled in; supply it.
Marked response: 3.08 µM

Exam item: Consider the compound O=c1cc(NCC(O)CN2CCCC2)n(Cc2ccccc2)c(=O)n1Cc1ccccc1 (configuration not stated) and give its recorded TGI.
Marked response: > 100 µM

Exam item: Tell me TGI reported for `CCc1cc(Cc2cc(CC)c(NC(=O)C(=O)CC(=O)c3sc(-c4cccnc4)nc3C)c(CC)c2)cc(CC)c1NC(=O)C(=O)CC(=O)c1sc(-c2cccnc2)nc1C`
Marked response: > 100 µM

Exam item: Please look at this compound and report its TGI: `CSc1nnc(SC)nn1`
Marked response: 29.5 µM

Exam item: Supply recorded TGI for `O=C1c2ccccc2C(=O)N1CCCCNOCCCN1C(=O)c2ccccc2C1=O` here.
Marked response: > 100 µM

Exam item: Retrieve TGI measured for COC(=O)C(CC(=O)Nc1ccc(C)cc1)C(=O)C(=O)Nc1c(C(C)C)cccc1C(C)C (configuration not stated) and print it.
Marked response: > 100 µM

Exam item: Please give measured TGI of the following entry: `c1ccc(Sc2ccc(Cc3nc4cc5ccccc5cc4[nH]3)cc2)cc1`
Marked response: > 100 µM

Exam item: Look up and report measured TGI for this entry: `O=C(/C=C/c1ccc(Cl)c(Cl)c1)c1ccc2ccccc2c1`
Marked response: > 100 µM

Exam item: Quote TGI reported for `CC1(C)/C(=C/N=O)N(O)C(C)(C)N1O` please.
Marked response: > 100 µM

Exam item: Output TGI of `CCOC(=O)Cc1nc2cc(F)c(F)cc2[nH]c1=O`
Marked response: > 100 µM

Exam item: For the compound `Nc1ccccc1C#C/C=C\C#Cc1ccccc1N` , give its measured TGI value.
Marked response: 34.1 µM

Exam item: Dear colleague, please send me the reported TGI for `Cc1cc(N(CCC#N)CCC#N)ccc1/C=C(\NC(=O)/C=C/c1ccccc1)C(N)=O` when you can.
Marked response: > 100 µM

###

- Tested on: MOLT-4 leukemia
- method-summary: NCI tumour cell line growth inhibition, 48 h
test-readout: TGI

Worked cases, answers included:
- compound: "COc1cc2ncnc(-n3ncc4cc(NC(=O)Nc5ccccc5)ccc43)c2cc1OC"
  result: "3.56 µM"
- compound: "COc1ccc(C[N+](C)(C)N)cc1OC"
  result: "> 100 µM"
- compound: "O=c1cc(-c2ccc(Oc3ccccc3)cc2)[nH]c2cc3c(cc12)OCO3"
  result: "> 100 µM"
- compound: "CC(C)c1ccc(-c2cc(-c3cn[nH]c3-c3ccccn3)ccn2)cc1"
  result: "> 24.1 µM"
- compound: "CC1CC2=C(S(=O)(=O)c3ccccc3)CC(S(=O)(=O)c3ccccc3)(S(=O)(=O)c3ccccc3)CC21 (stereo unspecified)"
  result: "> 100 µM"

Exam item: Given `CCc1nc(N)nc(N)c1-c1ccc(NC)c([N+](=O)[O-])c1` , report its TGI on MOLT-4 leukemia.
Marked response: > 68.2 µM

Exam item: Quote MOLT-4 leukemia TGI for entry CC(=O)OC1C(Oc2c(C)cc3c(c2O)[C@@H](C)CC[C@@H]3[C@@H](C)CCC=C(C)C)OCC(O)C1O (stereo partly specified) .
Marked response: 49.7 µM
